target-under-test: RAR-α (Homo sapiens, UniProt P10276)
Sequence (P10276 whole entry): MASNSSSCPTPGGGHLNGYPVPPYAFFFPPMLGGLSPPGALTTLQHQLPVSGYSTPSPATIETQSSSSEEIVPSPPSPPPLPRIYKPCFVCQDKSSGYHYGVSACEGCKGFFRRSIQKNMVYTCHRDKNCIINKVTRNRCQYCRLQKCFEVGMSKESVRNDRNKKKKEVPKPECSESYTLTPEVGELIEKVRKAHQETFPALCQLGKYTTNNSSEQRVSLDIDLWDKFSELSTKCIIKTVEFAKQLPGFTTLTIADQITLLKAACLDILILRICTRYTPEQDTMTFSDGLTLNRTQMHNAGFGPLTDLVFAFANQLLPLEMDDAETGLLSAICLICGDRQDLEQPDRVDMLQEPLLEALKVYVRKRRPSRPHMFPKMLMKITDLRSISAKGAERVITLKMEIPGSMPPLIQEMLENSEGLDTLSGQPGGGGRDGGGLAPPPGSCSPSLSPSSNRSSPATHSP
measured-metric: Kd (nM)
Report only the number, with the unit nM understood.

Noted Kd for COc1ccc(-c2ccc3cc(C(=O)O)ccc3c2)cc1C12CC3CC(CC(C3)C1)C2 , tested on RAR-α (Homo sapiens, UniProt P10276): 300
